# reported z-score; entries follow
# procedure_details: A549 lung cancer cell viability effects, profiling panel, resazurin fluorescence, 24 h, PK04 Diversity Set (AID 1171); note: test concentration not given here
# recorded_conditions: higher = more signal, called active from +8 up or from −8 down
Lab note: record the figure alone, no unit after it.

Input: Field request: z-score | item: C[C@]1(C(=O)O)c2ccccc2C(=O)N(Cc2ccccc2)[C@H]1c1ccc(CO)cc1
Output: 1.08

Input: Could you do the same for Cc1ccc(S[C@]2(C(=O)NC(C)C)CC(=O)N(Cc3ccccc3C(F)(F)F)[C@@H]2c2ccc(CO)cc2I)cc1 , please?
Output: 1.32

Input: Could you do the same for O=C(O)[C@H](Cc1ccccc1)n1cc(-c2ccccn2)nn1 , please?
Output: 0.507

Input: Could you do the same for C[N+](C)(C)CCCC[C@@H]1NC(=O)[C@@H]2C[C@H](C(=O)O)[C@H](c3ccc(O)cc3)N2C1=O , please?
Output: -0.246

Input: Could you do the same for COc1ccc([Si](C)(C)[C@H]2[C@H](CCn3cc([C@H](O)c4ccccc4)nn3)O[C@@]3(C(=O)N(Cc4ccc(N5CCC5=O)cc4)c4ccccc43)[C@@H]2C)cc1 , please?
Output: -0.869

Input: Could you do the same for CC(C)C(=C=CC[C@@H](O)c1ccccc1OCCO)C[C@@H](O)COCc1ccccc1 , please?
Output: 0.15

Input: Could you do the same for COC(=O)C1(Cc2ccccc2)C=C2C(=C(c3ccccc3)C(=O)C2C)CN1 (centres undefined) , please?
Output: -0.358

Input: Could you do the same for O=C1O[C@@H](c2ccccc2)[C@@H](c2ccccc2)N2[C@@H](c3ccccc3OCCO)[C@]3(C(=O)Nc4ccc(C#CC5=CCCCC5)cc43)[C@@H](C(=O)NC[C@H](O)c3ccccc3)[C@H]12 , please?
Output: -1.46

Input: Could you do the same for O=c1cccc(-c2ccc(C(F)(F)F)cc2)o1 , please?
Output: 0.374

Input: Could you do the same for COc1ccc([Si](C)(C)[C@H]2[C@H](CCn3cc(CCO)nn3)O[C@@]3(C(=O)N(Cc4ccc(N5C(=O)c6cccc7cccc5c67)cc4)c4ccccc43)[C@@H]2C)cc1 , please?
Output: -2.57

Input: Could you do the same for C=C(COC)/C(=C/C[C@@H](OC(=O)c1ccncc1)c1cccc(OCCO)c1)c1cnc2ccccc2c1 , please?
Output: -0.634

Input: Could you do the same for O=C1O[C@@H](c2ccccc2)[C@@H](c2ccccc2)N2[C@@H](c3ccc(O)cc3)[C@]3(C(=O)Nc4ccc(C#CCCO)cc43)[C@@H](C(=O)NC[C@H](O)c3ccccc3)[C@H]12 , please?
Output: 0.588

Data provenance is PubChem BioAssay.
